Tested on: Escherichia coli TOP10
Assay: shrunken log2 fold change of peptide-encoding DNA abundance (4.5 h post-induction vs induction); higher = less antimicrobial activity (less host growth inhibition)
Conditions: time post-induction: 4.5 h; library: site-saturation at positions 5, 18, 19, 20
Reported Metric: shrunken log2 fold change
Just the number.

Value (shrunken log2 fold change, Escherichia coli TOP10) for record RRIRTRPPRLPRPRPRPDMHPRP = -0.249

---

Test system: Escherichia coli TOP10;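 also: peptides expressed intracellularly from a pBAD plasmid library in pooled LB shake-flask culture, induced with 0.3% L-arabinose, DNA abundance read by NGS, three biological replicates, DESeq2 with apeglm shrinkage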
Experiment: shrunken log2 fold change of peptide-encoding DNA abundance (4.5 h post-induction vs induction); higher = less antimicrobial activity (less host growth inhibition)
Conditions: time post-induction: 4.5 h; library: site-saturation at positions 5, 18, 19, 20
Reported Metric: shrunken log2 fold change
Just the number.

Reference set (7 entries):
Biopolymer Sequence	Recorded Number
RRIRGRPPRLPRPRPRPMYAPRP	0.706
RRIRQRPPRLPRPRPRPMMDPRP	-0.137
RRIRCRPPRLPRPRPRPYLAPRP	-0.44
RRIRARPPRLPRPRPRPDYNPRP	-0.57
RRIRMRPPRLPRPRPRPHLQPRP	0.0376
RRIRIRPPRLPRPRPRPDEGPRP	-0.22
RRIRSRPPRLPRPRPRPNHKPRP	-0.738

Here's the next entry for you.
Please fill in: shrunken log2 fold change reported for RRIRFRPPRLPRPRPRPNILPRP = -0.178
